Entry source: patent US10336729B2

- TESTED_ON: AOC3 (Homo sapiens (Human))
- Sequence (Q16853 whole entry): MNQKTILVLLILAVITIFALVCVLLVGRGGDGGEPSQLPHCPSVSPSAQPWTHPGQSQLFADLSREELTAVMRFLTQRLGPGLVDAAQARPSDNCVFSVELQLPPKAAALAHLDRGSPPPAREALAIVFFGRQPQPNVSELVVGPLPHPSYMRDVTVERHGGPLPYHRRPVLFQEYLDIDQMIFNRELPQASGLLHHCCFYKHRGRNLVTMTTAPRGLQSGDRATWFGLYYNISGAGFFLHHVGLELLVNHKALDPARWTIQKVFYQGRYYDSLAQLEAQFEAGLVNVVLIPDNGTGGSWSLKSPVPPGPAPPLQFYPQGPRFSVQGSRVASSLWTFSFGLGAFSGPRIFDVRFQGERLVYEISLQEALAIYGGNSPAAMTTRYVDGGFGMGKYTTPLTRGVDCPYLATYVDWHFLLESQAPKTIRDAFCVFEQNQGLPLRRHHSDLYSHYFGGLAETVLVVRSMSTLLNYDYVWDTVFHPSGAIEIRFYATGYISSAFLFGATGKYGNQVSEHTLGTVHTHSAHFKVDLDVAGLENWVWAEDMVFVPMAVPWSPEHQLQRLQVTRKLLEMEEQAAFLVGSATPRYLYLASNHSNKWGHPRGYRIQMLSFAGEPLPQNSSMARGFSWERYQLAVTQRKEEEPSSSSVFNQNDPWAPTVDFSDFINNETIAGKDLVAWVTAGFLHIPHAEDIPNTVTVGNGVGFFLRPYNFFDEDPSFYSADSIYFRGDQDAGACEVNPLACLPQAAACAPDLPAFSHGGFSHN
- ASSAY_PROTOCOL: MAO-Glo AOC3 assay
- MEASUREMENT_CONTEXT: recombinant CHO cells overexpressing AOC3 enzyme
pIC50: −log10 of the molar value.
Rule: pIC50 of 7 or more gives 1; anything lower gives 0.

1) CC(=O)N1CCC(N2CCN(c3c(C#N)ccc(COC(=O)NC(=N)N)c3F)CC2)CC1 [Example 1.008] :: 0
2) N#Cc1ccc(COC(=O)NC(=N)N)c(F)c1N1CCC(c2ccncc2)C1 (centres unmarked) [Example 1.019] :: 1
3) CN(C)c1ccc(N2CCN(c3c(C#N)ccc(COC(=O)NC(=N)N)c3F)CC2)nn1 [Example 1.064] :: 1
4) N#Cc1ccc(COC(=O)NC(=N)N)c(F)c1N1CCC(N2CCC(O)CC2)CC1 [Example 1.089] :: 1
5) Cc1ccc(C2CCN(c3c(C#N)ccc(COC(=O)NC(=N)N)c3F)CC2)cc1 [Example 1.072] :: 0

----------
- TESTED_ON: AOC3 (Homo sapiens (Human))
- ASSAY_PROTOCOL: MAO-Glo AOC3 assay
- MEASUREMENT_CONTEXT: recombinant CHO cells overexpressing AOC3 enzyme
QUANTITY: IC50 (nM)

1) COc1ccc(C2CCN(c3c(C#N)ccc(COC(=O)NC(=N)N)c3F)CC2)cc1 [Example 1.048] :: 82
2) N#Cc1ccc(COC(=O)NC(=N)N)c(F)c1N1CCN(c2ccnnc2)CC1 [Example 1.006] :: 5
3) Cc1cc(C)cc(N2CCN(c3c(C#N)ccc(COC(=O)NC(=N)N)c3F)CC2)c1 [Example 1.052] :: 146
4) N#Cc1ccc(COC(=O)NC(=N)N)c(F)c1N1CCN(C2CCOCC2)CC1 [Example 1.038] :: 579
5) CN1CCN(C2CCN(c3c(C#N)ccc(COC(=O)NC(=N)N)c3F)CC2)CC1=O [Example 1.018] :: 169
6) CCc1ccc(N2CCN(c3c(C#N)ccc(COC(=O)NC(=N)N)c3F)CC2)cc1 [Example 1.060] :: 334
7) N#Cc1ccc(COC(=O)NC(=N)N)c(F)c1N1CCC(c2ncc(Cl)cn2)CC1 [Example 1.037] :: 54
8) CS(=O)(=O)N1CCC(C2CCN(c3c(C#N)ccc(COC(=O)NC(=N)N)c3F)CC2)CC1 [Example 1.017] :: 5
9) N#Cc1ccc(COC(=O)NC(=N)N)c(F)c1N1CCN(c2cccnn2)CC1 [Example 1.083] :: 34
10) Cc1ccc(N2CCN(c3c(C#N)ccc(COC(=O)NC(=N)N)c3F)CC2)cc1 [Example 1.041] :: 177
11) Cc1cccc(C2CCN(c3c(C#N)ccc(COC(=O)NC(=N)N)c3F)CC2)c1 [Example 1.047] :: 65
12) N#Cc1ccc(COC(=O)NC(=N)N)c(F)c1N1CCC(c2ccccc2)CC1 [Example 1.029] :: 71
13) N#Cc1ccc(COC(=O)NC(=N)N)c(F)c1N1CC=C(c2ccccc2)CC1 [Example 1.046] :: 27
14) N#Cc1ccc(COC(=O)NC(=N)N)c(F)c1N1CCC(c2ccc(F)cc2)CC1 [Example 1.031] :: 70
15) CS(=O)(=O)c1ccc(N2CCN(c3c(C#N)ccc(COC(=O)NC(=N)N)c3F)CC2)cc1 [Example 1.002] :: 6
16) N#Cc1ccc(COC(=O)NC(=N)N)c(F)c1N1CCN(c2ccncn2)CC1 [Example 1.001] :: 7
17) N#Cc1ccc(COC(=O)NC(=N)N)c(F)c1N1CCC(c2ccc(C(=O)O)cc2)CC1 [Example 1.035] :: 4
